assay: Toxicity liver stage against HepG2, at 10uM; type: cell-based; parameters: test concentration 10 uM, cell line HepG2-A16-CD81EGFP; settings: human, HepG2-A16-CD81EGFP cells; read-out: INHIBITION
I'd be grateful if you could share measured cytotoxicity at 10 µM for these entries.
Answer in %, number only, no unit symbol.

Entry CCOC(=O)N1CCN(C(=O)CCn2cccc2)CC1 — recorded cytotoxicity at 10 µM = 5.62

Entry COc1cccc(F)c1CN1CCC(c2nc(C)cc(C)n2)C1 (stereo unspecified) — recorded cytotoxicity at 10 µM = 6.83

Entry Cc1ccc(NC(=O)Cn2ncc(SCC(N)=O)c(Cl)c2=O)cc1 — recorded cytotoxicity at 10 µM = -16.9

Entry Cc1cn(Cc2ccc(F)cc2)nc1N — recorded cytotoxicity at 10 µM = -8.99

Entry O=C(NCCCO)NCCc1cc(F)ccc1F — recorded cytotoxicity at 10 µM = 2.37

Entry Cc1cc(C(=O)N2CCC3(CC(=O)NC3=O)C2)c(-c2ccccc2)o1 (stereo unspecified) — recorded cytotoxicity at 10 µM = -3.15
